Target: ligand binding domain of the glucocorticoid receptor (HEK293 cells stably expressing) (Homo sapiens, UniProt P04150)
Sequence (P04150 524-758 limits assumed): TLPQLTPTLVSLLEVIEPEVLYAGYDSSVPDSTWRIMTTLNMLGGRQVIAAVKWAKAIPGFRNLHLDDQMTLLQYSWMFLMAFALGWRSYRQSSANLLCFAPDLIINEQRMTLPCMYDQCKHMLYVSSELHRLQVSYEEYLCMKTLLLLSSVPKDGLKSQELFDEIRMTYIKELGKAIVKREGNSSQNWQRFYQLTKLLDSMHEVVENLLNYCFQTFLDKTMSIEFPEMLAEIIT
Assay: GR antagonism assay (luciferase reporter)
Each entry below lists one item and its recorded IC50 value.

Guide cases for IC50, answers given:
Inquiry: Requested field: IC50. Item: CC[C@@]1(O)C(=O)OCc2c1cc1n(c2=O)Cc2cc3c(CN(C)C)c(OC(=O)N4CCN(CCCCCCN(C)C5CCN(c6ccc(C(=O)N[C@H]7CC[C@H](Oc8ccc(C#N)c(Cl)c8C)CC7)nn6)CC5)CC4)ccc3nc2-1
Reply text: 101 to 1000 nM

Inquiry: Requested field: IC50. Item: CC[C@@]1(O)C(=O)OCc2c1cc1n(c2=O)Cc2cc3c(CN(C)C)c(OC(=O)N4CCN(CCCCCCCN(C)c5ccc([C@H]6C[C@@]7(C)[C@@H](CC[C@]7(OC(C)=O)C(C)=O)[C@@H]7CCC8=CC(=O)CCC8=C76)cc5)CC4)ccc3nc2-1
Reply text: 10 to 100 nM

Inquiry: Requested field: IC50. Item: CC[C@@]1(O)C(=O)OCc2c1cc1n(c2=O)Cc2cc3c(CN(C)C)c(OCC4CCN(C(=O)CN(C)c5ccc([C@H]6C[C@@]7(C)[C@@H](CC[C@]7(OC(C)=O)C(C)=O)[C@@H]7CCC8=CC(=O)CCC8=C76)cc5)CC4)ccc3nc2-1
Reply text: 10 to 100 nM

Inquiry: Requested field: IC50. Item: CC[C@@]1(O)C(=O)OCc2c1cc1n(c2=O)Cc2c-1nc1cc(F)c(C)c3c1c2[C@@H](NC(=O)CN1CCN(CCCCCCN(C)c2ccc([C@H]4C[C@@]5(C)[C@@H](CC[C@]5(OC(C)=O)C(C)=O)[C@@H]5CCC6=CC(=O)CCC6=C54)cc2)CC1)CC3
Reply text: 10 to 100 nM

Inquiry: Requested field: IC50. Item: CC[C@@]1(O)C(=O)OCc2c1cc1n(c2=O)Cc2cc3c(CN4CCN(C)CC4)c(OC(=O)N4CCN(CCCCCCN(C)c5ccc([C@H]6C[C@@]7(C)[C@@H](CC[C@]7(OC(C)=O)C(C)=O)[C@@H]7CCC8=CC(=O)CCC8=C76)cc5)CC4)ccc3nc2-1
Reply text: 10 to 100 nM

Continuing:
Inquiry: Requested field: IC50. Item: CC[C@@]1(O)C(=O)OCc2c1cc1n(c2=O)Cc2cc3c(CN(C)C)c(OC(=O)N4C[C@H](C)N(C(=O)C5CCN(c6ccc(C(=O)N[C@H]7CC[C@H](Oc8ccc(C#N)c(Cl)c8C)CC7)nn6)CC5)C[C@H]4C)ccc3nc2-1
Reply text: > 1000 nM

Inquiry: Requested field: IC50. Item: CC[C@@]1(OC(=O)CN(C)C)C(=O)OCc2c1cc1n(c2=O)Cc2cc3c(CN(C)C)c(OC(=O)N4CCN(CCCCCCN(C)c5ccc([C@H]6C[C@@]7(C)[C@@H](CC[C@]7(OC(C)=O)C(C)=O)[C@@H]7CCC8=CC(=O)CCC8=C76)cc5)CC4)ccc3nc2-1
Reply text: 10 to 100 nM

Inquiry: Requested field: IC50. Item: CC[C@@]1(O)C(=O)OCc2c1cc1n(c2=O)Cc2cc3c(CN4CCN(CCCCCCN(C)c5ccc([C@H]6C[C@@]7(C)[C@@H](CC[C@]7(OC(C)=O)C(C)=O)[C@@H]7CCC8=CC(=O)CCC8=C76)cc5)CC4)cccc3nc2-1
Reply text: 10 to 100 nM

* * *

Each entry below lists one item and its recorded pIC50 value.
Target: AR (cytosol from LnCaP cells) (Homo sapiens, UniProt P10275, T878A)
Sequence (P10275 1-920 T878A): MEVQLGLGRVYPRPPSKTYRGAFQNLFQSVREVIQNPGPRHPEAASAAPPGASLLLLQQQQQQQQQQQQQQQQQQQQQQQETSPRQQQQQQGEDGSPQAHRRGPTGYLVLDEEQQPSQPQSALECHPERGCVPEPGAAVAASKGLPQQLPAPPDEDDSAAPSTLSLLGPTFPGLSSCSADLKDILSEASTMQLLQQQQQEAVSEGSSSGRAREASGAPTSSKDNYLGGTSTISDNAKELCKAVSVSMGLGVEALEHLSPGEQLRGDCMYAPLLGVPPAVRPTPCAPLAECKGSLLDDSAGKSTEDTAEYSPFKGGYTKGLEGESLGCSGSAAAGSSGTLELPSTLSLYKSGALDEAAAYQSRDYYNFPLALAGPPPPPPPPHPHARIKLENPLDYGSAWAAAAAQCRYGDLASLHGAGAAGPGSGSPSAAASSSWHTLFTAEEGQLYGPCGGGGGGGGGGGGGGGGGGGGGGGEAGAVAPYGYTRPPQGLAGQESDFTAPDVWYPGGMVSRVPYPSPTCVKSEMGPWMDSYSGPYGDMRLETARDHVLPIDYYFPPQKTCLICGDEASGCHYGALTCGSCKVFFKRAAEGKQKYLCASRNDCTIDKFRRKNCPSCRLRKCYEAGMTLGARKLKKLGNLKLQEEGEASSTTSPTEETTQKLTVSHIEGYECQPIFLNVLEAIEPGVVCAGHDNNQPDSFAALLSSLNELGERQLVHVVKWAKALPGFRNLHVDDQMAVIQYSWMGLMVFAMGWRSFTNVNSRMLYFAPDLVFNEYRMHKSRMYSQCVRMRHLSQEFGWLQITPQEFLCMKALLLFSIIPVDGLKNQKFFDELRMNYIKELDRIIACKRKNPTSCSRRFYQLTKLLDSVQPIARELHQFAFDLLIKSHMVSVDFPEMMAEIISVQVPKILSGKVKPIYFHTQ
Experiment: AR binding assay (3H-R1881 displacement)
pIC50: −log10 of the molar value.

Inquiry: Requested field: pIC50. Item: CC[C@@]1(O)C(=O)OCc2c1cc1n(c2=O)Cc2cc3c(CN4CCN(C(=O)C5CCN(c6ccc(C(=O)N[C@H]7CC[C@H](Oc8ccc(C#N)c(Cl)c8C)CC7)nn6)CC5)CC4)c(OC(=O)N4CCN(C)CC4)ccc3nc2-1
Reply text: > 8.00

Inquiry: Requested field: pIC50. Item: CC[C@@]1(O)C(=O)OCc2c1cc1n(c2=O)Cc2cc3c(CN(C)C)c(OC(=O)N4CCN(C(=O)C5CCN(c6ccc(C(=O)N[C@H]7CC[C@H](N(C)c8ccc(C#N)c(Cl)c8)CC7)nn6)CC5)CC4)ccc3nc2-1
Reply text: > 8.00

* * *

Each entry below lists one item and its recorded pIC50 value.
target: full-length androgen receptor (HEK293 cells stably expressing) (Homo sapiens); test: AR antagonism assay (luciferase reporter)
pIC50: −log10 of the molar value.

Inquiry: Requested field: pIC50. Item: CC[C@@]1(O)C(=O)OCc2c1cc1n(c2=O)Cc2cc3c(CN4CCN(CC5CCN(c6ccc(C(=O)N[C@H]7CC[C@H](Oc8ccc(C#N)c(Cl)c8C)CC7)nn6)CC5)CC4)c(O)ccc3nc2-1
Reply text: < 6.00

Continuing:
Inquiry: Requested field: pIC50. Item: CC[C@@]1(O)C(=O)OCc2c1cc1n(c2=O)Cc2c-1nc1cc(F)c(C)c3c1c2[C@@H](NC(=O)CN1CCN(CCCCCCC2CCN(c4ccc(C(=O)N[C@H]5CC[C@H](Oc6ccc(C#N)c(Cl)c6C)CC5)nn4)CC2)CC1)CC3
Reply text: 6.00 to 7.00

Inquiry: Requested field: pIC50. Item: CC[C@@]1(O)C(=O)OCc2c1cc1n(c2=O)Cc2cc3c(CN(C)C)c(OC(=O)N4CCN(C(=O)[C@H](CCCNC(N)=O)NC(=O)[C@@H](NCCCCCCN(C)c5ccc([C@H]6C[C@@]7(C)[C@@H](CC[C@]7(OC(C)=O)C(C)=O)[C@@H]7CCC8=CC(=O)CCC8=C76)cc5)C(C)C)CC4)ccc3nc2-1
Reply text: < 6.00

Inquiry: Requested field: pIC50. Item: CC[C@@]1(O)C(=O)OCc2c1cc1n(c2=O)Cc2cc3c(CN(C)C)c(OCC4CCN(C(=O)CN(C)c5ccc([C@H]6C[C@@]7(C)[C@@H](CC[C@]7(OC(C)=O)C(C)=O)[C@@H]7CCC8=CC(=O)CCC8=C76)cc5)CC4)ccc3nc2-1
Reply text: < 6.00

Inquiry: Requested field: pIC50. Item: CC[C@@]1(O)C(=O)OCc2c1cc1n(c2=O)Cc2cc3c(CN4CCN(CCCCCCC5CCN(c6ccc(C(=O)N[C@H]7CC[C@H](Oc8ccc(C#N)c(Cl)c8C)CC7)nn6)CC5)CC4)c(O)ccc3nc2-1
Reply text: 7.00 to 8.00

Inquiry: Requested field: pIC50. Item: CC[C@@]1(O)C(=O)OCc2c1cc1n(c2=O)Cc2cc3c(CN4CCN(CCCCCCN(C)c5ccc([C@H]6C[C@@]7(C)[C@@H](CC[C@]7(OC(C)=O)C(C)=O)[C@@H]7CCC8=CC(=O)CCC8=C76)cc5)CC4)c(O)ccc3nc2-1
Reply text: 6.00 to 7.00

Inquiry: Requested field: pIC50. Item: CC[C@@]1(O)C(=O)OCc2c1cc1n(c2=O)Cc2cc3c(CN4CCN(C(=O)C5CCN(c6ccc(C(=O)N[C@H]7CC[C@H](Oc8ccc(C#N)c(Cl)c8C)CC7)nn6)CC5)CC4)c(OC(=O)N4C[C@H](C)N(C)C[C@H]4C)ccc3nc2-1
Reply text: < 6.00

Inquiry: Requested field: pIC50. Item: CC[C@@]1(O)C(=O)OCc2c1cc1n(c2=O)Cc2cc3c(CN4CCN(C(=O)CCCCCC5CCN(c6ccc(C(=O)N[C@H]7CC[C@H](Oc8ccc(C#N)c(Cl)c8C)CC7)nn6)CC5)CC4)c(O)ccc3nc2-1
Reply text: < 6.00
